Documented protein stability index across a set of variants
B1: RSAD1 (parent)
chain: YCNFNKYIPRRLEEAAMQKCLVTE

Variants of: B1
test description: protein stability index of a GFP-peptide fusion (GPS, HEK-293T) (PSI 1-6); higher = more stable;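 also: lentivirally expressed fusions sorted by FACS into six bins by GFP to DsRed ratio, PSI derived from sequencing read proportions per bin multiplied by bin number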
condition details: c terminus: a fixed tail appended
The answer should be written as a number, with no unit following it.

Solved cases below.
C20E ... 2.02
F4R ... 1.95
N5F ... 1.25
I8K ... 1.71
Q18M ... 3.17
P9N ... 1.82
L12W ... 4.96
R11N ... 1.61
F4P ... 2.82
L12M ... 2.83

# query: protein stability index of entry `N3S` 1.84

Cool, now `K19P` 2.76

Then what about the variant `L21K` ? 2.67
